Dear all, this message contains log10(GI50) results, target or system K-562.
Values below are the log10 of the recorded GI50, with nM as the unit.

# molecule, readout.name, recorded.value
rows = [
    ("O=C(N/N=C/c1cc[nH]c1)c1[nH]c2ccc(Br)cc2c1-c1ccccc1 [Derivative 3b]", "log10(GI50)", 2.63),
    ("CCc1ccc(/C=N/NC(=O)c2[nH]c3ccc(Br)cc3c2-c2ccccc2)[nH]1 [Derivative 3s]", "log10(GI50)", 2.53),
    ("Cn1cccc1/C=N/NC(=O)c1[nH]c2ccc(Br)cc2c1-c1ccccc1 [Derivative 3d]", "log10(GI50)", 2.51),
    ("O=C(N/N=C/c1[nH]ccc1Cl)c1[nH]c2ccc(Br)cc2c1-c1ccccc1 [Derivative 3g]", "log10(GI50)", 2.62),
    ("O=C(N/N=C/c1ccc(C(=O)N2CCOCC2)[nH]1)c1[nH]c2ccc(Br)cc2c1-c1ccccc1 [Derivative 3n]", "log10(GI50)", 3.10),
    ("CCOC(=O)c1ccc(/C=N/NC(=O)c2[nH]c3ccc(Br)cc3c2-c2ccccc2)[nH]1 [Derivative 3i]", "log10(GI50)", 3.03),
    ("O=C(N/N=C/c1cc(Cl)c[nH]1)c1[nH]c2ccc(Br)cc2c1-c1ccccc1 [Derivative 3h]", "log10(GI50)", 2.37),
    ("CCc1c[nH]c(/C=N/NC(=O)c2[nH]c3ccc(Br)cc3c2-c2ccccc2)c1 [Derivative 3t]", "log10(GI50)", 2.54),
]

query: Find the recorded log10(GI50) belonging to O=C(N/N=C/c1ccc([N+](=O)[O-])[nH]1)c1[nH]c2ccc(Br)cc2c1-c1ccccc1 [Derivative 3p] and report it.
result: 2.56

query: And then O=C(N/N=C/c1cc(Br)c[nH]1)c1[nH]c2ccc(Br)cc2c1-c1ccccc1 [Derivative 3e] , what is it?
result: 2.59

query: Likewise for O=C(N/N=C/c1cc([N+](=O)[O-])c[nH]1)c1[nH]c2ccc(Br)cc2c1-c1ccccc1 [Derivative 3q] ?
result: 2.59

query: Follow-up item: CCOC(=O)c1c[nH]c(/C=N/NC(=O)c2[nH]c3ccc(Br)cc3c2-c2ccccc2)c1 [Derivative 3j]
result: 3.28

query: // next record O=C(N/N=C/c1ccc[nH]1)c1[nH]c2ccc(Br)cc2c1-c1ccccc1 [Derivative 3a]
result: 2.31

query: Please give the result for CCc1cc[nH]c1/C=N/NC(=O)c1[nH]c2ccc(Br)cc2c1-c1ccccc1 [Derivative 3u] too.
result: 3.36

query: For O=C(N/N=C/c1cc(Br)c(Br)[nH]1)c1[nH]c2ccc(Br)cc2c1-c1ccccc1 [Derivative 3f] then?
result: 3.29

query: Moving on to the next molecule: CCOC(=O)c1cc(/C=N/NC(=O)c2[nH]c3ccc(Br)cc3c2-c2ccccc2)c[nH]1 [Derivative 3v]
result: 3.66

query: Now consider Cc1[nH]c(/C=N/NC(=O)c2[nH]c3ccc(Br)cc3c2-c2ccccc2)c(C)c1[N+](=O)[O-] [Derivative 3r] and answer again.
result: 3.43

query: Moving on to the next molecule: Cc1cc(C)c(/C=N/NC(=O)c2[nH]c3ccc(Br)cc3c2-c2ccccc2)[nH]1 [Derivative 3c]
result: 3.39

---

# Test system: HT29
readout.name: log10(GI50) (log10 of the value in nM)
Reminder: these figures are log10 of reported GI50, in nM before transformation.

# smiles.input, tested.system, recorded.value
rows = [
    ("O=C(N/N=C/c1[nH]ccc1Cl)c1[nH]c2ccc(Br)cc2c1-c1ccccc1", "HT29", 2.60),
    ("O=C(N/N=C/c1cc[nH]c1)c1[nH]c2ccc(Br)cc2c1-c1ccccc1", "HT29", 2.83),
    ("O=C(N/N=C/c1ccc([N+](=O)[O-])[nH]1)c1[nH]c2ccc(Br)cc2c1-c1ccccc1", "HT29", 2.74),
    ("O=C(N/N=C/c1cc(Br)c(Br)[nH]1)c1[nH]c2ccc(Br)cc2c1-c1ccccc1", "HT29", 3.37),
    ("Cc1cc(C)c(/C=N/NC(=O)c2[nH]c3ccc(Br)cc3c2-c2ccccc2)[nH]1", "HT29", 3.55),
]

query: Item: CCOC(=O)c1cc(/C=N/NC(=O)c2[nH]c3ccc(Br)cc3c2-c2ccccc2)c[nH]1 Test system: HT29 Read-out: log10(GI50) Value: ?
result: 3.52

query: Now try CCOC(=O)c1c[nH]c(/C=N/NC(=O)c2[nH]c3ccc(Br)cc3c2-c2ccccc2)c1 .
result: 3.41

query: Another: Cc1[nH]c(/C=N/NC(=O)c2[nH]c3ccc(Br)cc3c2-c2ccccc2)c(C)c1[N+](=O)[O-]
result: 3.26

query: Another molecule: O=C(N/N=C/c1cc([N+](=O)[O-])c[nH]1)c1[nH]c2ccc(Br)cc2c1-c1ccccc1
result: 2.67

query: Repeat with CCc1ccc(/C=N/NC(=O)c2[nH]c3ccc(Br)cc3c2-c2ccccc2)[nH]1
result: 2.47

query: How about CCc1c[nH]c(/C=N/NC(=O)c2[nH]c3ccc(Br)cc3c2-c2ccccc2)c1 ?
result: 2.49

query: For O=C(N/N=C/c1ccc[nH]1)c1[nH]c2ccc(Br)cc2c1-c1ccccc1 then?
result: 2.52

query: What about Cn1cccc1/C=N/NC(=O)c1[nH]c2ccc(Br)cc2c1-c1ccccc1 ?
result: 2.51

query: Item: O=C(N/N=C/c1cc(Cl)c[nH]1)c1[nH]c2ccc(Br)cc2c1-c1ccccc1
result: 2.46

query: What would you report for CCOC(=O)c1ccc(/C=N/NC(=O)c2[nH]c3ccc(Br)cc3c2-c2ccccc2)[nH]1 ?
result: 3.37

query: Same read-out for O=C(N/N=C/c1ccc(C(=O)N2CCOCC2)[nH]1)c1[nH]c2ccc(Br)cc2c1-c1ccccc1 ?
result: 3.41

query: Consider next the molecule CCc1cc[nH]c1/C=N/NC(=O)c1[nH]c2ccc(Br)cc2c1-c1ccccc1 in the same way.
result: 3.34

query: Next entry: O=C(N/N=C/c1cc(Br)c[nH]1)c1[nH]c2ccc(Br)cc2c1-c1ccccc1
result: 2.54

---

# System: SNB-19
Reported GI50 values are given for each entry in this list.
Response body: numeric value in nM, unit text excluded.

Take a look at these entries with their results.
# compound, tested.system, GI50 (nM)
records = [
    ("CCOC(=O)c1ccc(/C=N/NC(=O)c2[nH]c3ccc(Br)cc3c2-c2ccccc2)[nH]1 [Derivative 3i]", "SNB-19", 2980),
    ("O=C(N/N=C/c1cc[nH]c1)c1[nH]c2ccc(Br)cc2c1-c1ccccc1 [Derivative 3b]", "SNB-19", 2550),
    ("CCc1ccc(/C=N/NC(=O)c2[nH]c3ccc(Br)cc3c2-c2ccccc2)[nH]1 [Derivative 3s]", "SNB-19", 1820),
]

Proceed to the following item.
query: Notebook: pull reported GI50 for SNB-19, entry O=C(N/N=C/c1cc(Br)c[nH]1)c1[nH]c2ccc(Br)cc2c1-c1ccccc1 [Derivative 3e]
result: 330

---

# Tested on: SR
# protocol: NCI60 five-dose screen
# Format: cell-based
# measurement.conditions: Homo sapiens, leukemia, read-out: LC50 (the source's name)
readout.name: CC50

# smiles.input, CC50
data = [
    ("CCc1cc[nH]c1/C=N/NC(=O)c1[nH]c2ccc(Br)cc2c1-c1ccccc1", "> 100 µM"),
    ("CCc1c[nH]c(/C=N/NC(=O)c2[nH]c3ccc(Br)cc3c2-c2ccccc2)c1", "> 100 µM"),
    ("Cc1[nH]c(/C=N/NC(=O)c2[nH]c3ccc(Br)cc3c2-c2ccccc2)c(C)c1[N+](=O)[O-]", "> 100 µM"),
    ("CCOC(=O)c1c[nH]c(/C=N/NC(=O)c2[nH]c3ccc(Br)cc3c2-c2ccccc2)c1", "> 100 µM"),
    ("O=C(N/N=C/c1ccc(C(=O)N2CCOCC2)[nH]1)c1[nH]c2ccc(Br)cc2c1-c1ccccc1", "38.9 µM"),
]

Now take the following compound into account.
query: Field request: CC50 | item: CCc1ccc(/C=N/NC(=O)c2[nH]c3ccc(Br)cc3c2-c2ccccc2)[nH]1
result: > 100 µM

---

# Tested on: OVCAR-5
# protocol: NCI60 five-dose screen
# Format: cell-based
# measurement.conditions: Homo sapiens; OVCAR-5, ovarian cancer; read-out: LC50 (the source's name)
Below, each entry is listed with its recorded CC50.
Lab book: enter the figure in µM, no units written.

# compound, tested.system, readout.name, recorded.value
data = [
    ("O=C(N/N=C/c1cc(Br)c[nH]1)c1[nH]c2ccc(Br)cc2c1-c1ccccc1 [Derivative 3e]", "OVCAR-5", "CC50", 26.5),
    ("CCc1ccc(/C=N/NC(=O)c2[nH]c3ccc(Br)cc3c2-c2ccccc2)[nH]1 [Derivative 3s]", "OVCAR-5", "CC50", 38.7),
    ("O=C(N/N=C/c1ccc([N+](=O)[O-])[nH]1)c1[nH]c2ccc(Br)cc2c1-c1ccccc1 [Derivative 3p]", "OVCAR-5", "CC50", 40.9),
    ("Cc1cc(C)c(/C=N/NC(=O)c2[nH]c3ccc(Br)cc3c2-c2ccccc2)[nH]1 [Derivative 3c]", "OVCAR-5", "CC50", 37.6),
    ("CCc1c[nH]c(/C=N/NC(=O)c2[nH]c3ccc(Br)cc3c2-c2ccccc2)c1 [Derivative 3t]", "OVCAR-5", "CC50", 37.2),
]

query: Enter reported CC50 observed with OVCAR-5 for Cc1[nH]c(/C=N/NC(=O)c2[nH]c3ccc(Br)cc3c2-c2ccccc2)c(C)c1[N+](=O)[O-] [Derivative 3r]
result: 41.5

query: Now consider CCc1cc[nH]c1/C=N/NC(=O)c1[nH]c2ccc(Br)cc2c1-c1ccccc1 [Derivative 3u] .
result: 45.4

query: Repeat with CCOC(=O)c1cc(/C=N/NC(=O)c2[nH]c3ccc(Br)cc3c2-c2ccccc2)c[nH]1 [Derivative 3v]
result: 37.4
